Target: human GPR91 receptor (Homo sapiens, UniProt Q9BXA5)
Construct: expressed in transfected cells; host or cells: CHO-K1 NFAT cells
Sequence (Q9BXA5 1-334): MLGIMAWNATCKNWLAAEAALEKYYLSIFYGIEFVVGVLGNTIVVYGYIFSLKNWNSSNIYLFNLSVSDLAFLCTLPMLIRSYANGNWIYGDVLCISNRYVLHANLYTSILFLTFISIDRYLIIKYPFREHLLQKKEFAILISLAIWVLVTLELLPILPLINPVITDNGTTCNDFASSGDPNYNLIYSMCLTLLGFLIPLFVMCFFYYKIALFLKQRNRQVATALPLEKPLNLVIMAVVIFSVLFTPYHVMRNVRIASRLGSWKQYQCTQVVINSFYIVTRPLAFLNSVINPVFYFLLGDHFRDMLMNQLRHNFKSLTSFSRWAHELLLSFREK
Experiment: Human GPR91 calcium mobilization assay
Format: cell-based
Conditions: CHO-K1 NFAT cells over expressing human GPR91 receptor; Fluo4 AM; agonist sodium succinate; flex station; read-out: hGPR91 IC50 (μM)*
Measured IC50, listed per entry for reference.
assay-endpoint: IC50

{"molecule": "FC(F)(F)c1cc(Oc2cccc3ccncc23)ccc1Oc1cccc(CCc2nnn[nH]2)c1", "system-under-test": "human GPR91 receptor (Homo sapiens, UniProt Q9BXA5)", "endpoint-result": "5 to 10 µM"}
{"molecule": "O=C(O)Cc1cccc(Oc2ccc(Oc3ccc(F)c4ccncc34)cc2C(F)(F)F)c1", "system-under-test": "human GPR91 receptor (Homo sapiens, UniProt Q9BXA5)", "endpoint-result": "< 5 µM"}
{"molecule": "O=C(O)Cc1cccc(Oc2ccc(Oc3cccc4[nH]ncc34)cc2C(F)(F)F)c1", "system-under-test": "human GPR91 receptor (Homo sapiens, UniProt Q9BXA5)", "endpoint-result": "< 5 µM"}
{"molecule": "O=C(O)Cc1cccc(Oc2ccc(Oc3ccn4cnnc4c3)cc2C(F)(F)F)c1", "system-under-test": "human GPR91 receptor (Homo sapiens, UniProt Q9BXA5)", "endpoint-result": "> 10 µM"}
{"molecule": "Cn1cc2cc(Oc3ccc(Oc4cccc(CCC(=O)O)c4)c(C(F)(F)F)c3)ccc2n1", "system-under-test": "human GPR91 receptor (Homo sapiens, UniProt Q9BXA5)", "endpoint-result": "< 5 µM"}
{"molecule": "N#Cc1n[nH]c2ccc(Oc3ccc(Oc4cccc(CC(=O)O)c4)c(C(F)(F)F)c3)cc12", "system-under-test": "human GPR91 receptor (Homo sapiens, UniProt Q9BXA5)", "endpoint-result": "< 5 µM"}
{"molecule": "O=C(O)CCc1cccc(Oc2ccc(Oc3ccc4[nH]ncc4c3)cc2C(F)(F)F)c1", "system-under-test": "human GPR91 receptor (Homo sapiens, UniProt Q9BXA5)", "endpoint-result": "< 5 µM"}
{"molecule": "O=C(O)Cc1cccc(Oc2ccc(Oc3ccc4cnc(C(=O)O)n4c3)cc2C(F)(F)F)c1", "system-under-test": "human GPR91 receptor (Homo sapiens, UniProt Q9BXA5)", "endpoint-result": "< 5 µM"}
